Where do the numbers come from? From patent US10710978B2.

Biological target: PIK3CB (Homo sapiens (Human), UniProt P42338)
Sequence (P42338 whole entry): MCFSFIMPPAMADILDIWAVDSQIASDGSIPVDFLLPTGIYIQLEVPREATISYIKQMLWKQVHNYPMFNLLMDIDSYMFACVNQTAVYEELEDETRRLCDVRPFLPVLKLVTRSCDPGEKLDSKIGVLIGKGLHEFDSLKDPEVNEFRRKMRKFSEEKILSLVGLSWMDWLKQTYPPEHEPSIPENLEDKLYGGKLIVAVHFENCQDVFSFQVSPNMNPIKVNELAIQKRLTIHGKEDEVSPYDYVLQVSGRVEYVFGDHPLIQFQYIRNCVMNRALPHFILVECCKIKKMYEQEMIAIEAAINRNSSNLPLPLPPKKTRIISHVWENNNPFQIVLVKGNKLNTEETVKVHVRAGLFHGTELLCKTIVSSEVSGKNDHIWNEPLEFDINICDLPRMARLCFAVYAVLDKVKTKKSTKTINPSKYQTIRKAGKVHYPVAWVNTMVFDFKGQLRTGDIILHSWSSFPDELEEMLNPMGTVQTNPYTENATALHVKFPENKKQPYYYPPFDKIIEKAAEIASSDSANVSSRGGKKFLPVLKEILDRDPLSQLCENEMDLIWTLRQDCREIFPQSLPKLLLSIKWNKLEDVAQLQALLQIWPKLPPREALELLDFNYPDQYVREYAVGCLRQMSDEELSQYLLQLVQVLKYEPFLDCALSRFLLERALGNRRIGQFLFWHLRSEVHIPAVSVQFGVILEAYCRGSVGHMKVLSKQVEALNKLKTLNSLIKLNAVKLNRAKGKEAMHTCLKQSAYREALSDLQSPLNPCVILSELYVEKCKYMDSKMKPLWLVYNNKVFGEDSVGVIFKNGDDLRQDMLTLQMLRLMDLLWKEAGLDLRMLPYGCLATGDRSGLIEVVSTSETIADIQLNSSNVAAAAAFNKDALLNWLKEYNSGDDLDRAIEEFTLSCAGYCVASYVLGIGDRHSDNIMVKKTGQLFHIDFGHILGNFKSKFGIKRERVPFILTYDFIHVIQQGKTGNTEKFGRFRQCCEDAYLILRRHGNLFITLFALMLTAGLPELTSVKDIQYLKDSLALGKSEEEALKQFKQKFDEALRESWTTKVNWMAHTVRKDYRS
Sequence (P27986 whole entry partner): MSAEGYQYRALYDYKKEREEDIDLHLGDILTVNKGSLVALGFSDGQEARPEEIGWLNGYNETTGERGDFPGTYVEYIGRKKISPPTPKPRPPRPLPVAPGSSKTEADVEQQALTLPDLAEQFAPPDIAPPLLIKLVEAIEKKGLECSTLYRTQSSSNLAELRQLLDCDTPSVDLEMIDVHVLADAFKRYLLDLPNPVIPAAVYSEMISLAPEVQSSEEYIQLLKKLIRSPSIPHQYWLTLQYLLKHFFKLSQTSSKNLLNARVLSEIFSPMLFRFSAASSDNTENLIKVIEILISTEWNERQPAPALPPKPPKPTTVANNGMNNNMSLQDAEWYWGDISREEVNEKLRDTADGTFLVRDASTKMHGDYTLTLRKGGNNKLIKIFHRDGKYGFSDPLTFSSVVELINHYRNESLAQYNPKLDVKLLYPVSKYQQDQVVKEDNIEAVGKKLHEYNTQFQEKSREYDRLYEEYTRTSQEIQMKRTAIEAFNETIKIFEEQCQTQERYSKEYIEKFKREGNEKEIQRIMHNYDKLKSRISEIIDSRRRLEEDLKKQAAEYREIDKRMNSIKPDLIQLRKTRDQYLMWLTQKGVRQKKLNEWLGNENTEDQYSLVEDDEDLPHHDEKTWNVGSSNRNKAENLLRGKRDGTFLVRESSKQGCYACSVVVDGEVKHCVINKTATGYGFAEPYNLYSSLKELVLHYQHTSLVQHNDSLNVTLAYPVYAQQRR
Test: KiNativ assay
Type: binding
Conditions: H929 live cell, read-out: inhibition (10 μM)
measured parameter: inhibition at 10 µM (%)

| compound smiles | quantitative readout |
| --- | --- |
| CN(C1CC1)S(=O)(=O)c1ccc(-c2cnc(N)c(-c3ccc4c(c3)CCNC4=O)c2)c(F)c1 | 1.9 |
| COc1cc(NS(=O)(=O)C2CC2)ccc1-c1cnc(N)c(-c2ccc3c(c2)CCNC3=O)c1 | 27.7 |
| Nc1ncc(-c2cccc([N+](=O)[O-])c2F)cc1-c1ccc2c(c1)CCNC2=O | 14.6 |
| Nc1ncc(-c2ccc(NS(=O)(=O)C3CC3)cc2F)cc1-c1ccc2c(c1)CCNC2=O | 7.2 |
| Nc1ncc(-c2cccc3ncsc23)cc1-c1ccc2c(c1)CCNC2=O | 23.1 |
| Nc1ncc(-c2ccc(NS(=O)(=O)C3CC3)cc2OC2CCCCC2)cc1-c1ccc2c(c1)CCNC2=O | 14.6 |

---

System: AMPKa1, AMPKa2
Assay: KiNativ assay
Assay type: binding
Conditions: H929 live cell
measured parameter: inhibition (10 μM) (%)

| compound smiles | test system | quantitative readout |
| --- | --- | --- |
| Nc1ncc(-c2ccc(NS(=O)(=O)C3CC3)cc2OC2CCCCC2)cc1-c1ccc2c(c1)CCNC2=O | AMPKa1, AMPKa2 | 39.0 |
| Nc1ncc(-c2cccc3ncsc23)cc1-c1ccc2c(c1)CCNC2=O | AMPKa1, AMPKa2 | 1.8 |
| Nc1ncc(-c2cccc([N+](=O)[O-])c2F)cc1-c1ccc2c(c1)CCNC2=O | AMPKa1, AMPKa2 | 52.0 |
| COc1cc(NS(=O)(=O)C2CC2)ccc1-c1cnc(N)c(-c2ccc3c(c2)CCNC3=O)c1 | AMPKa1, AMPKa2 | −8.2 |
| Nc1ncc(-c2ccc(NS(=O)(=O)C3CC3)cc2F)cc1-c1ccc2c(c1)CCNC2=O | AMPKa1, AMPKa2 | −20.5 |
| CN(C1CC1)S(=O)(=O)c1ccc(-c2cnc(N)c(-c3ccc4c(c3)CCNC4=O)c2)c(F)c1 | AMPKa1, AMPKa2 | −1.6 |

---

Recorded inhibition at 10 µM, one value per entry.
Target: UniProtKB Q02750
Sequence (Q02750 whole entry): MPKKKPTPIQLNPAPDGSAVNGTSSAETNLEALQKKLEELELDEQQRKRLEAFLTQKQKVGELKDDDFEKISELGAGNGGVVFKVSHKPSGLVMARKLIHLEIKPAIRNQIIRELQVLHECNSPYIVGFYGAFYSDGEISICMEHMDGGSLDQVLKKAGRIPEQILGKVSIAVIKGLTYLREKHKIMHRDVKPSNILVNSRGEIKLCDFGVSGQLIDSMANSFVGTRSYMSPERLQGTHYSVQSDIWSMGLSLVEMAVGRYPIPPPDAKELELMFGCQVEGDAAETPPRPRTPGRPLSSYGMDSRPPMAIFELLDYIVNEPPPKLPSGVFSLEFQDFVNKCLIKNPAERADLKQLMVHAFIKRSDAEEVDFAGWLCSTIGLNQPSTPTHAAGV
Assay: KiNativ assay
Assay type: binding
Settings: H929 live cell, read-out: inhibition (10 μM)

| molecule | inhibition at 10 µM, % |
| --- | --- |
| Nc1ncc(-c2ccc(NS(=O)(=O)C3CC3)cc2F)cc1-c1ccc2c(c1)CCNC2=O [Compound I-51] | -26.2 |
| COc1cc(NS(=O)(=O)C2CC2)ccc1-c1cnc(N)c(-c2ccc3c(c2)CCNC3=O)c1 [Compound I-50] | 17.8 |
| Nc1ncc(-c2ccc(NS(=O)(=O)C3CC3)cc2OC2CCCCC2)cc1-c1ccc2c(c1)CCNC2=O [Compound I-65] | 21.2 |
| CN(C1CC1)S(=O)(=O)c1ccc(-c2cnc(N)c(-c3ccc4c(c3)CCNC4=O)c2)c(F)c1 [Compound I-28] | -5.5 |
| Nc1ncc(-c2cccc([N+](=O)[O-])c2F)cc1-c1ccc2c(c1)CCNC2=O [Compound I-9] | -55.8 |
| Nc1ncc(-c2cccc3ncsc23)cc1-c1ccc2c(c1)CCNC2=O [Compound I-13] | -27.4 |

---

Target: TYK2 domain2 (Homo sapiens (Human))
Sequence (P29597 whole entry, the tested form may be a part): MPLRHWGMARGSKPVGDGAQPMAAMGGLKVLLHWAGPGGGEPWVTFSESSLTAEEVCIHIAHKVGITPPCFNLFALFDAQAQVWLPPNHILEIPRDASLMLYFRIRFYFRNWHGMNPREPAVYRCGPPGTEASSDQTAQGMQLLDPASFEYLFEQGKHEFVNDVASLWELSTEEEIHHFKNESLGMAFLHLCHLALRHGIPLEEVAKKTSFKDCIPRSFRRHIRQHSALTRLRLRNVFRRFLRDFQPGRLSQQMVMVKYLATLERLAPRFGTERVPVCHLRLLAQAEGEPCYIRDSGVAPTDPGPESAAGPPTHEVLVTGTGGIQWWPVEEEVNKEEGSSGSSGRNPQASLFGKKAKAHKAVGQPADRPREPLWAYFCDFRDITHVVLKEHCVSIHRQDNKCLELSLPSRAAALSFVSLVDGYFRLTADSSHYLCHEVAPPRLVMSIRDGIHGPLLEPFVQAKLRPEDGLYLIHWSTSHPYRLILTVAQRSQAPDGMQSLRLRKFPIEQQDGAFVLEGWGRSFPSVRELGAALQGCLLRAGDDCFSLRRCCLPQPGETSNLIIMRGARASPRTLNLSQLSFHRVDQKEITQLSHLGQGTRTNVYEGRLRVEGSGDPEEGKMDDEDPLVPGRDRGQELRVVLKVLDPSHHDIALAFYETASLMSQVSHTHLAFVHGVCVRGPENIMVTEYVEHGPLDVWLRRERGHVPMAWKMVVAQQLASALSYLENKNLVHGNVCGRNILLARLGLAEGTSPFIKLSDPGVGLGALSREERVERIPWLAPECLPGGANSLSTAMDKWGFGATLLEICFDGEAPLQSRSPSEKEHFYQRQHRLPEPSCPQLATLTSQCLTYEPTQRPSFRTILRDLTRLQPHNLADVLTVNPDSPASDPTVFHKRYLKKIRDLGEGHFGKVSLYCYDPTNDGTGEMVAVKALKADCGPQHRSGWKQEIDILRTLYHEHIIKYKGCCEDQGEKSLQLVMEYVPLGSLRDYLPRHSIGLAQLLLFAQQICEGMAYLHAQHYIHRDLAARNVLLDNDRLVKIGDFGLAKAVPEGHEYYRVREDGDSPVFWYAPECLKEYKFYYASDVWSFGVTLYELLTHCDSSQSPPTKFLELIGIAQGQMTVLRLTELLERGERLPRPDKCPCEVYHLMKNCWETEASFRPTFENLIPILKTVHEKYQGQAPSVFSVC
Experiment: KiNativ assay
Assay type: binding
Conditions: H929 live cell, read-out: inhibition (10 μM)

| compound smiles | inhibition at 10 µM, % |
| --- | --- |
| Nc1ncc(-c2ccc(NS(=O)(=O)C3CC3)cc2OC2CCCCC2)cc1-c1ccc2c(c1)CCNC2=O | -8.4 |
| COc1cc(NS(=O)(=O)C2CC2)ccc1-c1cnc(N)c(-c2ccc3c(c2)CCNC3=O)c1 | -21 |
| CN(C1CC1)S(=O)(=O)c1ccc(-c2cnc(N)c(-c3ccc4c(c3)CCNC4=O)c2)c(F)c1 | 3.8 |
| Nc1ncc(-c2ccc(NS(=O)(=O)C3CC3)cc2F)cc1-c1ccc2c(c1)CCNC2=O | -23.9 |
| Nc1ncc(-c2cccc3ncsc23)cc1-c1ccc2c(c1)CCNC2=O | 0.6 |
| Nc1ncc(-c2cccc([N+](=O)[O-])c2F)cc1-c1ccc2c(c1)CCNC2=O | 29.9 |

---

Test system: RSK1 domain1, RSK2 domain1, RSK3 domain1
Experiment: KiNativ assay
Assay type: binding
Conditions: H929 live cell
Recorded inhibition (10 μM), one value per entry.

| compound smiles | inhibition (10 μM) |
| --- | --- |
| CN(C1CC1)S(=O)(=O)c1ccc(-c2cnc(N)c(-c3ccc4c(c3)CCNC4=O)c2)c(F)c1 | 13.3% |
| COc1cc(NS(=O)(=O)C2CC2)ccc1-c1cnc(N)c(-c2ccc3c(c2)CCNC3=O)c1 | 15.8% |
| Nc1ncc(-c2ccc(NS(=O)(=O)C3CC3)cc2OC2CCCCC2)cc1-c1ccc2c(c1)CCNC2=O | 68.4% |
| Nc1ncc(-c2ccc(NS(=O)(=O)C3CC3)cc2F)cc1-c1ccc2c(c1)CCNC2=O | 25.8% |
| Nc1ncc(-c2cccc([N+](=O)[O-])c2F)cc1-c1ccc2c(c1)CCNC2=O | 58.7% |
| Nc1ncc(-c2cccc3ncsc23)cc1-c1ccc2c(c1)CCNC2=O | 13.1% |

---

Target: STLK6 (Homo sapiens (Human), UniProt Q9C0K7)
Sequence (Q9C0K7 whole entry): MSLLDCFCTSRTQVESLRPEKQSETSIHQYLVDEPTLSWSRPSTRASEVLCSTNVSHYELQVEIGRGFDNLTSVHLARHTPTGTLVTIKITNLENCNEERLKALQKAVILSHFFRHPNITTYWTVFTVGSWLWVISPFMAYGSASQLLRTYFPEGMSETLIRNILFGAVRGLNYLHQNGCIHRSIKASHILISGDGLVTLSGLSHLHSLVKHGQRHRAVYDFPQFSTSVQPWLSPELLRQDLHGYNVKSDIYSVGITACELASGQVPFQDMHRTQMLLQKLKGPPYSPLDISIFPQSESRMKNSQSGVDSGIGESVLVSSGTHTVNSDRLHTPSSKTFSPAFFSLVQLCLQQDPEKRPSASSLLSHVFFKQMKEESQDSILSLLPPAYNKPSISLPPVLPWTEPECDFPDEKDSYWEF
Experiment: KiNativ assay
Format: binding
Settings: H929 live cell, read-out: inhibition (10 μM)
measured parameter: inhibition at 10 µM (%)

| compound smiles | units symbol | quantitative readout |
| --- | --- | --- |
| Nc1ncc(-c2ccc(NS(=O)(=O)C3CC3)cc2F)cc1-c1ccc2c(c1)CCNC2=O | % | -15 |
| Nc1ncc(-c2ccc(NS(=O)(=O)C3CC3)cc2OC2CCCCC2)cc1-c1ccc2c(c1)CCNC2=O | % | -15.9 |
| CN(C1CC1)S(=O)(=O)c1ccc(-c2cnc(N)c(-c3ccc4c(c3)CCNC4=O)c2)c(F)c1 | % | 1.4 |
| Nc1ncc(-c2cccc([N+](=O)[O-])c2F)cc1-c1ccc2c(c1)CCNC2=O | % | -47.7 |
| Nc1ncc(-c2cccc3ncsc23)cc1-c1ccc2c(c1)CCNC2=O | % | -10.8 |
| COc1cc(NS(=O)(=O)C2CC2)ccc1-c1cnc(N)c(-c2ccc3c(c2)CCNC3=O)c1 | % | -15 |

---

Recorded inhibition at 10 µM, one value per entry.
Biological target: UniProt P48729
Sequence (P48729 whole entry): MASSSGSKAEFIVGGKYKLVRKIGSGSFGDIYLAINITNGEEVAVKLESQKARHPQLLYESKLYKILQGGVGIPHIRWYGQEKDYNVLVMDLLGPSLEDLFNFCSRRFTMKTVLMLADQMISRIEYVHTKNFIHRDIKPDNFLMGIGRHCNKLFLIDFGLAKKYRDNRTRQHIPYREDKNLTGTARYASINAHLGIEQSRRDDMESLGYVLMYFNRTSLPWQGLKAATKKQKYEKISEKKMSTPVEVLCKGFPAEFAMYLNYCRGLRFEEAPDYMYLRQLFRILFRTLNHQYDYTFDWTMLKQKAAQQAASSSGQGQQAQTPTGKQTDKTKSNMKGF
Assay: KiNativ assay
Assay type: binding
Settings: H929 live cell, read-out: inhibition (10 μM)

| compound | units symbol | inhibition at 10 µM |
| --- | --- | --- |
| CN(C1CC1)S(=O)(=O)c1ccc(-c2cnc(N)c(-c3ccc4c(c3)CCNC4=O)c2)c(F)c1 [Compound I-28] | % | 37.8 |
| Nc1ncc(-c2cccc3ncsc23)cc1-c1ccc2c(c1)CCNC2=O [Compound I-13] | % | -17.4 |
| Nc1ncc(-c2cccc([N+](=O)[O-])c2F)cc1-c1ccc2c(c1)CCNC2=O [Compound I-9] | % | 84.6 |
| Nc1ncc(-c2ccc(NS(=O)(=O)C3CC3)cc2F)cc1-c1ccc2c(c1)CCNC2=O [Compound I-51] | % | -34.7 |
| Nc1ncc(-c2ccc(NS(=O)(=O)C3CC3)cc2OC2CCCCC2)cc1-c1ccc2c(c1)CCNC2=O [Compound I-65] | % | -65.1 |
| COc1cc(NS(=O)(=O)C2CC2)ccc1-c1cnc(N)c(-c2ccc3c(c2)CCNC3=O)c1 [Compound I-50] | % | -20.9 |

---

Molecular target: CSNK1E (Homo sapiens (Human), UniProt P49674)

| compound smiles | test system | IC50 |
| --- | --- | --- |
| Nc1ncc(-c2cc([N+](=O)[O-])ccc2F)cc1-c1ccc2c(c1)CCNC2=O | CSNK1E (Homo sapiens (Human), UniProt P49674) | 201 nM |

---

Target: MSK2 domain1 (Homo sapiens (Human), UniProt O75676)
Sequence (O75676 whole entry, the tested form may be a part): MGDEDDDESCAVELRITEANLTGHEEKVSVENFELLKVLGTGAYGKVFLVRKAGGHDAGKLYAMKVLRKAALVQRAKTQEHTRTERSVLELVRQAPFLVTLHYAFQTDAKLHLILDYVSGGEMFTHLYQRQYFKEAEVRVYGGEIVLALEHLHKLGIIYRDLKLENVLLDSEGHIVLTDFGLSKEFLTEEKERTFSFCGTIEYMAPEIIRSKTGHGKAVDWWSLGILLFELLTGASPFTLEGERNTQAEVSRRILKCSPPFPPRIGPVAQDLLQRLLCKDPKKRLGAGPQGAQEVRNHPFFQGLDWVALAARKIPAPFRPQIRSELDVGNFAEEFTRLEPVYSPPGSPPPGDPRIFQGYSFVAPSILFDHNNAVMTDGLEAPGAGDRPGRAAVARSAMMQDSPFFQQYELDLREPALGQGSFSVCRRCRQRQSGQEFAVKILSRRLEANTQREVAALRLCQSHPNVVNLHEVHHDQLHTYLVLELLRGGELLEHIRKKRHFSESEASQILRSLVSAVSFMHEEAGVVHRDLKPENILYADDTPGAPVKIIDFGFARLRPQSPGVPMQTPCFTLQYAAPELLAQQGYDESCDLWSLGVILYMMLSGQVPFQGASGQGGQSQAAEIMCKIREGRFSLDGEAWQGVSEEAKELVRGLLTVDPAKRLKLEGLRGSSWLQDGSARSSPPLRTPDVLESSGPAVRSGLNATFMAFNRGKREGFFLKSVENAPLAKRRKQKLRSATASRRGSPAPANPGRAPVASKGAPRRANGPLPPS
Test: KiNativ assay
Format: binding
Conditions: H929 live cell, read-out: inhibition (10 μM)

| compound smiles | inhibition at 10 µM, % |
| --- | --- |
| Nc1ncc(-c2ccc(NS(=O)(=O)C3CC3)cc2F)cc1-c1ccc2c(c1)CCNC2=O | -8 |
| Nc1ncc(-c2cccc3ncsc23)cc1-c1ccc2c(c1)CCNC2=O | -6.1 |
| Nc1ncc(-c2cccc([N+](=O)[O-])c2F)cc1-c1ccc2c(c1)CCNC2=O | -36.5 |
| CN(C1CC1)S(=O)(=O)c1ccc(-c2cnc(N)c(-c3ccc4c(c3)CCNC4=O)c2)c(F)c1 | 2.9 |
| Nc1ncc(-c2ccc(NS(=O)(=O)C3CC3)cc2OC2CCCCC2)cc1-c1ccc2c(c1)CCNC2=O | -83.6 |
| COc1cc(NS(=O)(=O)C2CC2)ccc1-c1cnc(N)c(-c2ccc3c(c2)CCNC3=O)c1 | -2.8 |
